Attribution: patent US12410160B2

ASSAY SYSTEM: human KHK-C (Homo sapiens (Human), UniProt P50053)
Sequence (P50053 whole entry): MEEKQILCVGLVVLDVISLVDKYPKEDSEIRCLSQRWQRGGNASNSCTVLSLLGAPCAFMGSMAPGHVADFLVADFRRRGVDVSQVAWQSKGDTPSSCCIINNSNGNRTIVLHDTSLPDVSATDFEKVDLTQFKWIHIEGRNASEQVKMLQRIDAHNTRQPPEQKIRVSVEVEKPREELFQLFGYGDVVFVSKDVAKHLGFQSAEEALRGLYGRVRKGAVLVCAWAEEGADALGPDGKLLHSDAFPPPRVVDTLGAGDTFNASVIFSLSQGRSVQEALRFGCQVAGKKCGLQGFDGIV
MEASUREMENT NOTES: KHK Biochemical Assay (IC50), ADP-Glo, KHK-C
MEASUREMENT CONDITIONS: average of at least two separate assays
Field 'label' (enum: Fulfilled / Not fulfilled). Set to Fulfilled when IC50 is strictly under 30 nM; else Not fulfilled.

{"COMPOUND": "C[C@H]1[C@H](O)CN1c1nc(-c2cc3c(s2)CCC3NS(C)(=O)=O)c2c(n1)C(F)(F)CC2 (stereo partly drawn)", "LABEL": "Fulfilled"}
{"COMPOUND": "NC1(c2ccc(-c3nc(N4CC(F)(F)[C@H]4CO)nc4c3CCC4(F)F)cc2)CS(=O)(=O)C1 (single isomer, unassigned)", "LABEL": "Not fulfilled"}
{"COMPOUND": "C[C@H]1CCN1c1nc2c(c(-c3cc(C(N)=O)c4ccccc4c3)n1)CCC2", "LABEL": "Not fulfilled"}
{"COMPOUND": "C[C@H]1[C@H](O)CN1c1nc(-c2ccc(OC(F)F)c([S@@](C)(=N)=O)c2)c2c(n1)C(F)(F)CC2 (single isomer, unassigned)", "LABEL": "Fulfilled"}
{"COMPOUND": "C[C@H]1[C@H](O)CN1c1nc(-c2ccc(OC3CC3)c([S@@](C)(=N)=O)c2)c2c(n1)C(F)(F)CC2 (single isomer, unassigned)", "LABEL": "Fulfilled"}
